target: human LTA4 hydrolase (Homo sapiens (Human), UniProt P09960)
Sequence (P09960 whole entry): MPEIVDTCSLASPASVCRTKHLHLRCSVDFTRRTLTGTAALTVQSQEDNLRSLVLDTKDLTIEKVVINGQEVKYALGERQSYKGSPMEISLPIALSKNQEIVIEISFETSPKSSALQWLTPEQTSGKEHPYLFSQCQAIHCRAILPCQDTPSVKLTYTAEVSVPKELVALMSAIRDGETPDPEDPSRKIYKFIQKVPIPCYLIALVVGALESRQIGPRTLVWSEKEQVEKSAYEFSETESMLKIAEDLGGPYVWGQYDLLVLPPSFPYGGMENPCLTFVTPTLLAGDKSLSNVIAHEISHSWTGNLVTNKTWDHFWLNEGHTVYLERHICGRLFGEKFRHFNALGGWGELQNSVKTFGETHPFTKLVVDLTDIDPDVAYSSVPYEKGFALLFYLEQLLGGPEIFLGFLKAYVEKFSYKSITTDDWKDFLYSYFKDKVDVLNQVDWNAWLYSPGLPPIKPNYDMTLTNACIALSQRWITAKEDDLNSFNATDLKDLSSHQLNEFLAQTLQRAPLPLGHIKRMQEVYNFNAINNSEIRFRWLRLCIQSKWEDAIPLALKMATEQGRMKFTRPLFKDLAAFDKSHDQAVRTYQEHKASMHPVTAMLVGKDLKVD
Here, each record is paired with measured IC50 data.
VALUE TYPE: IC50 (nM)

>>> readout_value("O=C1CCCN1C1CCN(C[C@H]2Cc3ccc(Oc4ccc(-c5ccn[nH]5)cn4)cc3O2)CC1")
0.66
>>> readout_value("CS(=O)(=O)N1CCN(Cc2ccc3cc(Oc4ccc(-c5ccn[nH]5)cn4)ccc3n2)CC1")
1.7
>>> readout_value("O[C@@H]1CCN(Cc2ccc3cc(Oc4ccc(-c5ccn[nH]5)cn4)ccc3c2)C1")
0.57
>>> readout_value("CC(C)[C@@H](O)C(=O)N1CCN(Cc2ccc3cc(Oc4ccc(-c5ccn[nH]5)cn4)ccc3n2)CC1")
5.9

* * *

molecular target: human LTA4 hydrolase (Homo sapiens (Human))
pIC50: −log10 of the molar value.
Here, each record is paired with measured pIC50 data.
VALUE TYPE: pIC50

>>> readout_value("CN(CCO)Cc1ccc2cc(Oc3ccc(-c4ccn[nH]4)cn3)ccc2c1")
9.15
>>> readout_value("O=C([C@H]1CCCO1)N1CC2CCC(C1)N2Cc1ccc2cc(Oc3ccc(-c4ccn[nH]4)cn3)ccc2n1")
8.89
>>> readout_value("CS(=O)(=O)N1CCN(CCC2COc3cc(Oc4ccc(-c5ccn[nH]5)cn4)ccc32)CC1 (centres unmarked)")
8.77
>>> readout_value("CO[C@H](C)C(=O)N1CC2CCC(C1)N2Cc1ccc2cc(Oc3ccc(-c4ccn[nH]4)cn3)ccc2n1")
9.11
>>> readout_value("CN(C(=O)CO)[C@@H]1CCN(Cc2ccc3cc(Oc4ccc(-c5ccn[nH]5)cn4)ccc3c2)C1")
9.17
>>> readout_value("COCC(=O)N1CC2CCC(C1)N2Cc1ccc2cc(Oc3ccc(-c4ccn[nH]4)cn3)ccc2n1")
9.48
>>> readout_value("O[C@H]1CCN(Cc2ccc3cc(Oc4ccc(-c5ccn[nH]5)cn4)ccc3c2)C1")
9.22
>>> readout_value("CC(C)[C@H](O)C(=O)N1CCN(Cc2ccc3cc(Oc4ccc(-c5ccn[nH]5)cn4)ccc3n2)CC1")
8.60

* * *

target: human LTA4 hydrolase (Homo sapiens (Human))
So basically: is IC50 under 1 nM? Then label 1. Not under? Then label 0.

>>> cat("O=C(N1CC2CCC(C1)N2Cc1ccc2cc(Oc3ccc(-c4ccn[nH]4)cn3)ccc2n1)C1(O)CC1")
"label 1"
>>> cat("N#CCC(=O)N1CC2CCC(C1)N2Cc1ccc2cc(Oc3ccc(-c4ccn[nH]4)cn3)ccc2n1")
"label 1"
>>> cat("O=C(C1CC(O)C1)N1CCN(Cc2ccc3cc(Oc4ccc(-c5ccn[nH]5)cn4)ccc3n2)CC1 (stereo not shown)")
"label 0"
>>> cat("CC(C)(O)C(=O)N1CCN(CCc2coc3cc(Oc4ccc(-c5ccn[nH]5)cn4)ccc23)CC1")
"label 0"
>>> cat("CC(C)(CO)C(=O)N1CCN(Cc2ccc3cc(Oc4ccc(-c5ccn[nH]5)cn4)ccc3n2)CC1")
"label 0"
>>> cat("CC(C)(C#N)C(=O)N1CCN(Cc2ccc3cc(Oc4ccc(-c5ccn[nH]5)cn4)ccc3n2)CC1")
"label 0"
>>> cat("N#CC1(C(=O)N2CCN(Cc3ccc4cc(Oc5ccc(-c6ccn[nH]6)cn5)ccc4n3)CC2)CCCC1")
"label 0"

* * *

pIC50: −log10 of the molar value.
A short record of pIC50 observed with human LTA4 hydrolase (Homo sapiens (Human)) follows.
VALUE TYPE: pIC50

>>> readout_value("CC1(O)CC(C(=O)N2CCN(Cc3ccc4cc(Oc5ccc(-c6ccn[nH]6)cn5)ccc4n3)CC2)C1 (centres unmarked)")
8.47
>>> readout_value("C[C@@H](O)CC(=O)N1CCN(Cc2ccc3cc(Oc4ccc(-c5ccn[nH]5)cn4)ccc3n2)CC1")
8.31
>>> readout_value("O[C@@H]1CCN(Cc2ccc3cc(Oc4ncc(-c5ccn[nH]5)cn4)ccc3c2)C1")
8.62
>>> readout_value("N#CC1(C(=O)N2CCN(Cc3ccc4cc(Oc5ccc(-c6ccn[nH]6)cn5)ccc4n3)CC2)CC1")
9.06
>>> readout_value("CC(=O)NC1CCN(Cc2coc3cc(Oc4ccc(-c5ccn[nH]5)cn4)ccc23)CC1")
9.25
>>> readout_value("CO[C@H](C)C(=O)N1CCN(Cc2ccc3cc(Oc4ccc(-c5ccn[nH]5)cn4)ccc3n2)CC1")
9.24
>>> readout_value("O=C(C1CC1)N1CCN(Cc2ccc3cc(Oc4ncc(-c5ccn[nH]5)cn4)ccc3c2)CC1")
8.74
>>> readout_value("CC[C@H](O)C(=O)N1CCN(Cc2ccc3cc(Oc4ccc(-c5ccn[nH]5)cn4)ccc3n2)CC1")
8.64

* * *

A short record of IC50 observed with human LTA4 hydrolase (Homo sapiens (Human)) follows.
VALUE TYPE: IC50 (nM)

>>> readout_value("C[C@@H](O)C(=O)N1CCN(Cc2ccc3cc(Oc4ccc(-c5ccn[nH]5)cn4)ccc3n2)CC1")
0.88
>>> readout_value("COCC(=O)N1CCN(Cc2ccc3cc(Oc4ncc(-c5ccn[nH]5)cn4)ccc3c2)CC1")
2
>>> readout_value("O=C(N1CCN(CCC2COc3cc(Oc4ccc(-c5ccn[nH]5)cn4)ccc32)CC1)C1(O)CC1 (centres unmarked)")
1.5
>>> readout_value("CC(C#N)C(=O)N1CCN(Cc2ccc3cc(Oc4ccc(-c5ccn[nH]5)cn4)ccc3n2)CC1 (centres unmarked)")
0.47
>>> readout_value("O=C(CO)N1CCN(Cc2ccc3cc(Oc4ccc(-c5ccn[nH]5)cn4)ccc3c2)CC1")
0.4
>>> readout_value("C[C@@H](O)C(=O)N1CCN(CCC2COc3cc(Oc4ccc(-c5ccn[nH]5)cn4)ccc32)CC1 (some centres unmarked)")
2.2
>>> readout_value("N#CCCNCc1ccc2cc(Oc3ccc(-c4ccn[nH]4)cn3)ccc2n1")
2
>>> readout_value("C[C@H](O)C(=O)N1CCN(Cc2cn3cc(Oc4ccc(-c5ccn[nH]5)cc4)ccc3n2)CC1")
1

* * *

molecular target: human LTA4 hydrolase (Homo sapiens (Human))
So basically: is IC50 under 0.7 nM? Then true (1). Not under? Then false (0).

>>> cat("CC1(O)CN(Cc2ccc3cc(Oc4ncc(-c5ccn[nH]5)cn4)ccc3c2)C1 [Example 47]")
"false (0)"
>>> cat("O=C(N1CCN(CCc2coc3cc(Oc4ccc(-c5ccn[nH]5)cn4)ccc23)CC1)C1(O)CC1 [Example 93]")
"false (0)"
>>> cat("O=C(CO)N1CCC2(CCN(Cc3ccc4cc(Oc5ccc(-c6ccn[nH]6)cn5)ccc4n3)C2)C1 (centres unmarked) [Example 102]")
"true (1)"
>>> cat("CO[C@@H](C)C(=O)N1CC2CCC(C1)N2Cc1ccc2cc(Oc3ccc(-c4ccn[nH]4)cn3)ccc2n1 [Example 53]")
"true (1)"
>>> cat("O=C([C@@H]1CCCO1)N1CC2CCC(C1)N2Cc1ccc2cc(Oc3ccc(-c4ccn[nH]4)cn3)ccc2n1 [Example 55]")
"false (0)"
>>> cat("CCC(=O)N1CCN(Cc2ccc3cc(Oc4ncc(-c5ccn[nH]5)cn4)ccc3c2)CC1 [Example 37]")
"true (1)"

* * *

Here, each record is paired with measured IC50 data.
biological target: human LTA4 hydrolase (Homo sapiens (Human))
VALUE TYPE: IC50

>>> readout_value("O=C1[C@@H](O)CCN1C1CCN(C[C@H]2Cc3ccc(Oc4ccc(-c5ccn[nH]5)cn4)cc3O2)CC1 [Example 62]")
"0.77 nM"
>>> readout_value("CC[C@@H](O)C(=O)N1CCN(Cc2ccc3cc(Oc4ccc(-c5ccn[nH]5)cn4)ccc3n2)CC1 [Example 134]")
"3.1 nM"
>>> readout_value("CC(C)(C#N)C(=O)N1CC2CCC(C1)N2Cc1ccc2cc(Oc3ccc(-c4ccn[nH]4)cn3)ccc2n1 [Example 51]")
"0.73 nM"
>>> readout_value("CC(=O)N1CCN(Cc2cn3cc(Oc4ccc(-c5ccn[nH]5)cc4)ccc3n2)CC1 [Example 95]")
"0.59 nM"
>>> readout_value("O=C([C@@H]1CCCO1)N1CCN(Cc2ccc3cc(Oc4ccc(-c5ccn[nH]5)cn4)ccc3n2)CC1 [Example 132]")
"2.9 nM"
>>> readout_value("C[C@H](O)C(=O)N1CC2CCC(C1)N2Cc1ccc2cc(Oc3ccc(-c4ccn[nH]4)cn3)ccc2n1 [Example 57]")
"0.43 nM"
>>> readout_value("OC1CN(Cc2ccc3cc(Oc4ccc(-c5ccn[nH]5)cn4)ccc3n2)C1 [Example 42]")
"0.92 nM"
>>> readout_value("CO[C@H](C)C(=O)N1CCN(CCC2COc3cc(Oc4ccc(-c5ccn[nH]5)cn4)ccc32)CC1 (stereo partly shown) [Example 76]")
"1.7 nM"
>>> readout_value("CC(C)(C)C(=O)N1CCN(Cc2ccc3cc(Oc4ncc(-c5ccn[nH]5)cn4)ccc3c2)CC1 [Example 35]")
"2.7 nM"
>>> readout_value("O=C1CCCN1C1CCN(CCc2coc3cc(Oc4ccc(-c5ccn[nH]5)cn4)ccc23)CC1 [Example 72]")
"0.47 nM"
>>> readout_value("O=C(CO)N1CCN(CCc2coc3cc(Oc4ccc(-c5ccn[nH]5)cn4)ccc23)CC1 [Example 82]")
"1.3 nM"
>>> readout_value("CC(C)(O)C(=O)N1CC2CCC(C1)N2Cc1ccc2cc(Oc3ccc(-c4ccn[nH]4)cn3)ccc2n1 [Example 58]")
"0.45 nM"
>>> readout_value("CC(C)C(=O)N1CCN(Cc2ccc3cc(Oc4ncc(-c5ccn[nH]5)cn4)ccc3c2)CC1 [Example 41]")
"0.97 nM"
>>> readout_value("O=C(CN1CCN(Cc2coc3cc(Oc4ccc(-c5ccn[nH]5)cn4)ccc23)CC1)N1CCCC1 [Example 111]")
"0.68 nM"
>>> readout_value("CN(Cc1ccc2cc(Oc3ccc(-c4ccn[nH]4)cn3)ccc2n1)[C@H]1CCN(C(=O)CO)C1 [Example 101]")
"2 nM"
>>> readout_value("O=C1OCCN1C1CCN(CCC2COc3cc(Oc4ccc(-c5ccn[nH]5)cn4)ccc32)CC1 (stereo not shown) [Example 69]")
"0.75 nM"

Sourced from patent US9573957B2
